Task for the reader: assign each of the following molecules its reported activity, negative = inhibition.
subject-of-test: Cytochrome P450 2C19 (Homo sapiens) (UniProt P33261)
Sequence (P33261 whole entry, looked up): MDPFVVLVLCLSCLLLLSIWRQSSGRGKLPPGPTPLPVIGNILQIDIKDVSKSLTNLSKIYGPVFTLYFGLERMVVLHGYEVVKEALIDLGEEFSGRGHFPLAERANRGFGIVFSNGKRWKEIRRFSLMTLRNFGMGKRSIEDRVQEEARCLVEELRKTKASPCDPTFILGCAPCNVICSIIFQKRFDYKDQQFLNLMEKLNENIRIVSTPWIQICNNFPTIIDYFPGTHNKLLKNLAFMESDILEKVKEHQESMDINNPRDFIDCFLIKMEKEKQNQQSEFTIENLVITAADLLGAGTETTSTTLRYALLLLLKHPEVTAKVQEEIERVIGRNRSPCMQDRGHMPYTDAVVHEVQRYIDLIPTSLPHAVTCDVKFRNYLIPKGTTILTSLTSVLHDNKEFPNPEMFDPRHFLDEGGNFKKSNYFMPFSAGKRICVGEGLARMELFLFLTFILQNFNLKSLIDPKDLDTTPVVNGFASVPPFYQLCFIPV
test: Cytochrome panel assay with activity outcomes; note: % is set by controls: 0 for no effect and ±100 for the full control effect
experimental-setup: recombinant CYP, pro-luciferin dealkylation, luminescence, p450-cyp2c19; series mostly up to 57.1 µM
Hit rate of the full screen: of about 16,000 compounds, about 5,800 (36%) were called active. Roughly 23% stayed inconclusive and do not appear here. Some of the results follow.

Recorded activity, negative = inhibition of `Nc1nc(-c2ccccc2)c(-c2ccccc2)c(-c2nc(N)nc(-c3ccccc3)c2-c2ccccc2)n1` , please. 13% [at 11.4 µM] (inactive)

How about this molecule: `Cn1c(=O)c2[nH]c(SCc3ccccn3)nc2n(C)c1=S` 29.1% [at 11.4 µM] (inactive)

How about this molecule: `C#CCCCO/N=C1/C[C@@H](O)[C@@H](O)[C@@H]2[C@@H]3C(=O)N(C[C@@H]4CCCO4)C(=O)[C@H]3CC[C@H]12` -15.3% [at 11.4 µM] (inactive)

How about this molecule: `CN(C)c1ncnc2c1ncn2CCn1cnc2c(N(C)C)ncnc21` 27.8% [at 11.4 µM] (inactive)

How about this molecule: Cc1cc(C)c(-c2cc([C@H](C)O/N=C3/[C@H]4OC4[C@@H](O)[C@H]4[C@H]3CCn3c(=O)n(-c5ccccc5)c(=O)n34)on2)c(C)c1 (some centres undefined) -40% [at 11.4 µM] (inactive)

How about this molecule: `CO[C@H]1COC(=O)CCC[C@H](C)[C@H](OC)COC(=O)C/C=C\[C@@H]1C` -23% [at 11.4 µM] (inactive)

How about this molecule: `O=C(O)C[C@H](Cc1ccccc1Cl)C(=O)O` 14.2% [at 11.4 µM] (inactive)

How about this molecule: `CC1=N[C@@](C)(COC(=O)[C@]2(C)N[C@](C)(CO)CO2)COC1=O` 40.4% [at 11.4 µM] (inactive)

How about this molecule: `NS(=O)(=O)c1ccc(NCc2nc3ccccc3[nH]2)cc1` 39.2% [at 11.4 µM] (inactive)

Every entry's value here was drawn from PubChem BioAssay AID1851.
